Target: Human immunodeficiency virus type 1 integrase (Human immunodeficiency virus 1, UniProt Q7ZJM1)
Sequence (Q7ZJM1 whole entry): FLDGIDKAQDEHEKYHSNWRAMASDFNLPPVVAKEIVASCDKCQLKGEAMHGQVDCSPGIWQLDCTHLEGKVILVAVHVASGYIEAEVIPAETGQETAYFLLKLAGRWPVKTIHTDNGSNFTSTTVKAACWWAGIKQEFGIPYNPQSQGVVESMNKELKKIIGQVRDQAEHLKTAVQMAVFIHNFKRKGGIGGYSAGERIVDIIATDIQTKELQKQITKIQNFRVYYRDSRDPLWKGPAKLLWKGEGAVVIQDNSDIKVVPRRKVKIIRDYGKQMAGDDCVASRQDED
MEASURE_NAME: pIC50
The meaning of pIC50 here: minus log10 of the concentration in molar units.

1. O=c1c(O)c(-c2ncc(Cc3ccc(F)cc3)[nH]2)nc2c(N3CCCS3(=O)=O)cc(N3CCOCC3)cn12
7.02

Give the value of pIC50 reported for the following: `O=c1c(O)c(-c2nnc(Cc3ccc(F)cc3)s2)nc2ccc(N3CCOCC3)cn12`
6.65

State, in one line, measured pIC50 of `O=C1CCCN1c1cc(N2CCOCC2)cn2c(=O)c(O)c(-c3ncc(Cc4ccc(F)cc4)[nH]3)nc12`
7.33

These entries and their values trace back to ChEMBL document CHEMBL1255515.
